Target: P2Y purinoceptor 1 (Homo sapiens)
Sequence (P47900 whole entry): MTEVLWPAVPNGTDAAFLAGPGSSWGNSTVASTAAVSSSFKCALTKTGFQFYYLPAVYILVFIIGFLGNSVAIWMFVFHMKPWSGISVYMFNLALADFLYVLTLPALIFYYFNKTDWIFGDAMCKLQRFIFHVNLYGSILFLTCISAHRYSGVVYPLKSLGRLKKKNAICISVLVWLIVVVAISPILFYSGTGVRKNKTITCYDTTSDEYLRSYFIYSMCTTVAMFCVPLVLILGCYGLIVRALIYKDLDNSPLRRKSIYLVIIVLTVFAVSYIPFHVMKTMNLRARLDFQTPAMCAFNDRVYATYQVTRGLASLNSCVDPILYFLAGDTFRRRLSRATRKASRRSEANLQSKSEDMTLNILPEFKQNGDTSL
Test: Agonist activity at P2Y1 receptor expressed in human HEK293 cells
Type: functional, cell-based
quantity_measured: pEC50
Would you please state pEC50, meaning minus log10 of the concentration in mol/L, as a bare number?

What does the record list as pEC50 for [BH3-]P(=O)(OC[C@H]1O[C@@H](n2cnc3c(N)nc(SC)nc32)[C@H](O)[C@H]1O)OP(=O)([O-])OP(=O)([O-])[O-].[Na+].[Na+].[Na+].[Na+] (stereo partly specified) ?
8.59

* * *

Assay: Stability in human serum assessed as half life of hydrolysis
Assay type: ADME, cell-free
quantity_measured: half-life (h)
# output: bare number, implied unit h

What does the record list as half-life for CSc1nc(N)c2ncn([C@@H]3O[C@H](COP(=O)(O)OP(=O)(O)O)[C@@H](O)[C@H]3O)c2n1 (single isomer, unassigned) ?
12.1
